test: qHTS of pediatric cancer cell lines to identify multiple opportunities for drug repurposing: Primary screen for control Hh wild type fibroblast cells (AID 1347106); settings: Hh wild-type fibroblast viability, CellTiter-Glo luminescence, 48 h; series mostly up to 46 µM; note: nearly all actives have a fitted effect of over 55% in size
Records with an inconclusive call do not appear. Calls of active or inactive are those of the source. Calls come from the whole dose curve; as a rule, active = well fitted cell-killing curve with a large enough effect; inconclusive = small, poorly fitted or top-dose-only effect; inactive = flat fitted curve, though single readings scatter.
Outcome codes: yes for active, no for inactive

ITEM SMILES	CAT
Cn1cc(-c2[nH]c3cc(NC(=O)[C@H](N)C4CCCCC4)cc4c3c2C=NNC4=O)cn1	no
O=C(Nc1cn[nH]c1-c1nc2ccc(CN3CCOCC3)cc2[nH]1)NC1CC1	yes
COc1c(N2C[C@@H]3CCCN[C@H]3C2)c(F)cc2c(=O)c(C(=O)O)cn(C3CC3)c12	no
COc1cc2ncnc(Nc3ccc(F)c(Cl)c3)c2cc1NC(=O)C=CCN1CCCCC1	no
C=CC(=O)Nc1cccc(Oc2nc(Nc3ccc(N4CCN(C)CC4)cc3)ncc2Cl)c1	yes
C1Cc2[nH]nc(-c3nn[nH]n3)c2C1	no
Nc1ccccc1NC(=O)c1ccc(CNC(=O)OCc2cccnc2)cc1	yes
Cc1cc(Nc2cc(N3CCN(C)CC3)nc(C=Cc3ccccc3)n2)n[nH]1	yes
CCCCCCCCCC(=O)N[C@@H](Cc1c[nH]c2ccccc12)C(=O)N[C@H](CC(N)=O)C(=O)N[C@@H](CC(=O)O)C(=O)N[C@@H]1C(=O)NCC(=O)N[C@@H](CCCN)C(=O)N[C@@H](CC(=O)O)C(=O)N[C@H](C)C(=O)N[C@@H](CC(=O)O)C(=O)NCC(=O)N[C@H](CO)C(=O)N[C@@H]([C@@H](C)CC(=O)O)C(=O)N[C@@H](CC(=O)c2ccccc2N)C(=O)O[C@@H]1C	no
COc1cc(C(=O)NS(=O)(=O)c2ccccc2C)ccc1Cc1cn(C)c2ccc(NC(=O)OC3CCCC3)cc12	no

These entries and their values trace back to PubChem BioAssay (NCATS).
